Test: Partition between n-octanol and saline
Assay type: physicochemical
Conditions: Table 1, free ligand, read-out: Partition coefficient (converted)
Recorded Endpoint: logP
Give bare numbers.

- Sample Smiles: "CC[C@H](C)[C@H](NC(=O)CCOCC(CC)(COCCC(=O)N[C@H](C(=O)N(C)O)[C@@H](C)CC)COCCC(=O)N[C@H](C(=O)N(C)O)[C@@H](C)CC)C(=O)N(C)O"
  Recorded Endpoint: "logP"
  Observed Measurement: 1.15
- Sample Smiles: "CCC(COCCC(=O)N[C@@H](CC(C)C)C(=O)N(C)O)(COCCC(=O)N[C@@H](CC(C)C)C(=O)N(C)O)COCCC(=O)N[C@@H](CC(C)C)C(=O)N(C)O"
  Recorded Endpoint: "logP"
  Observed Measurement: 1.1
- Sample Smiles: "CCC(COCCC(=O)N[C@@H](C)C(=O)N(C)O)(COCCC(=O)N[C@@H](C)C(=O)N(C)O)COCCC(=O)N[C@@H](C)C(=O)N(C)O"
  Recorded Endpoint: "logP"
  Observed Measurement: -0.276
- Sample Smiles: "CCC(COCCC(=O)N[C@H](C)C(=O)N(C)O)(COCCC(=O)N[C@H](C)C(=O)N(C)O)COCCC(=O)N[C@H](C)C(=O)N(C)O"
  Recorded Endpoint: "logP"
  Observed Measurement: -0.276

Now look at this one.
So for CCC(COCCC(=O)N1CCC[C@H]1C(=O)N(C)O)(COCCC(=O)N1CCC[C@H]1C(=O)N(C)O)COCCC(=O)N1CCC[C@H]1C(=O)N(C)O , the logged logP turned out to be -0.187

====

Provide the recorded Relative binding for the entries that follow.
Assay: Relative iron(III) binding efficiency by competition with EDTA
Type: physicochemical
Conditions: Table 1; DFO = 100; competition with EDTA in aqueous MeOH

Some entries whose results are on file:
- Molecule: "CC(=O)N(O)CCCCCNC(=O)CCC(=O)N(O)CCCCCNC(=O)CCC(=O)N(O)CCCCCN [DFO, desferrioxamine B, reference compound]"
  Relative binding: 100
- Molecule: "CCC(COCCC(=O)N[C@@H](CC(C)C)C(=O)N(C)O)(COCCC(=O)N[C@@H](CC(C)C)C(=O)N(C)O)COCCC(=O)N[C@@H](CC(C)C)C(=O)N(C)O"
  Relative binding: 10
- Molecule: "CC[C@H](C)[C@H](NC(=O)CCOCC(CC)(COCCC(=O)N[C@H](C(=O)N(C)O)[C@@H](C)CC)COCCC(=O)N[C@H](C(=O)N(C)O)[C@@H](C)CC)C(=O)N(C)O"
  Relative binding: 25
- Molecule: "CCC(COCCC(=O)N[C@@H](C)C(=O)N(C)O)(COCCC(=O)N[C@@H](C)C(=O)N(C)O)COCCC(=O)N[C@@H](C)C(=O)N(C)O"
  Relative binding: 108

I have 2 molecules here; please give me Relative binding for each one.
1. CCC(COCCC(=O)N1CCC[C@H]1C(=O)N(C)O)(COCCC(=O)N1CCC[C@H]1C(=O)N(C)O)COCCC(=O)N1CCC[C@H]1C(=O)N(C)O
2. CCC(COCCC(=O)N[C@H](C)C(=O)N(C)O)(COCCC(=O)N[C@H](C)C(=O)N(C)O)COCCC(=O)N[C@H](C)C(=O)N(C)O

Result:
1: 14; 2: 108

====

Assay: Relative iron(III) binding efficiency by competition with EDTA
Assay type: physicochemical
Conditions: Table 2; relative to DFO = 1.16; 0.75 mM hydroxamate, 0.15 mM EDTA, 0.15 mM Fe3+ in aqueous methanol
rel. Fe binding (b) under 1 gets Yes, anything at or over 1 gets No.

- Molecule: "CCC(COCCC(=O)N[C@H](C(=O)N(C)O)C(C)C)(COCCC(=O)N[C@H](C(=O)N(C)O)C(C)C)COCCC(=O)N[C@H](C(=O)N(C)O)C(C)C"
  Label: "No"

Task: Consider the molecule CC(=O)N(O)CCCCCNC(=O)CCC(=O)N(O)CCCCCNC(=O)CCC(=O)N(O)CCCCCN [DFO, desferrioxamine B, reference compound] . Is its rel. Fe binding (b) strictly less than 1?
Result: No

Task: Consider the molecule CCC(COCC(=O)N[C@@H](CC(C)C)C(=O)N(C)O)(COCC(=O)N[C@@H](CC(C)C)C(=O)N(C)O)COCC(=O)N[C@@H](CC(C)C)C(=O)N(C)O . Is its rel. Fe binding (b) strictly less than 1?
Result: Yes

Task: Consider the molecule CCC(COCCC(=O)N[C@@H](C)C(=O)N(C)O)(COCCC(=O)N[C@@H](C)C(=O)N(C)O)COCCC(=O)N[C@@H](C)C(=O)N(C)O . Is its rel. Fe binding (b) strictly less than 1?
Result: No

====

Assay: Extraction of iron from aqueous FeCl3/citrate into chloroform
Type: physicochemical
Details: 0.3 mM in chloroform vs 0.3 mM FeCl3, 0.3 mM citric acid, 40 mM TRIS, pH 6.9, overnight
Recorded Endpoint: Extraction efficiency
Give bare numbers.

Some entries whose results are on file:
- Sample Smiles: "CCC(COCCC(=O)N1CCC[C@H]1C(=O)N(C)O)(COCCC(=O)N1CCC[C@H]1C(=O)N(C)O)COCCC(=O)N1CCC[C@H]1C(=O)N(C)O"
  Extraction efficiency: 38
- Sample Smiles: "CCC(COCCC(=O)N[C@@H](C)C(=O)N(C)O)(COCCC(=O)N[C@@H](C)C(=O)N(C)O)COCCC(=O)N[C@@H](C)C(=O)N(C)O"
  Extraction efficiency: 88
- Sample Smiles: "CCC(COCCC(=O)N[C@@H](CC(C)C)C(=O)N(C)O)(COCCC(=O)N[C@@H](CC(C)C)C(=O)N(C)O)COCCC(=O)N[C@@H](CC(C)C)C(=O)N(C)O"
  Extraction efficiency: 35
- Sample Smiles: "CCC(COCCC(=O)N[C@H](C)C(=O)N(C)O)(COCCC(=O)N[C@H](C)C(=O)N(C)O)COCCC(=O)N[C@H](C)C(=O)N(C)O"
  Extraction efficiency: 88

So for CC[C@H](C)[C@H](NC(=O)CCOCC(CC)(COCCC(=O)N[C@H](C(=O)N(C)O)[C@@H](C)CC)COCCC(=O)N[C@H](C(=O)N(C)O)[C@@H](C)CC)C(=O)N(C)O , the logged Extraction efficiency turned out to be 52

====

Provide the recorded Pcoeff*Fe binding (a*b) for the entries that follow.
Assay: Relative iron(III) binding efficiency by competition with EDTA
Assay type: physicochemical
Settings: product of relative partition coefficient and relative iron(III) binding
Numbers only.

I have 8 molecules here; please give me Pcoeff*Fe binding (a*b) for each one.
1. CCC(COCC(=O)N[C@@H](CC(C)C)C(=O)N(C)O)(COCC(=O)N[C@@H](CC(C)C)C(=O)N(C)O)COCC(=O)N[C@@H](CC(C)C)C(=O)N(C)O [(L--leu) n=1]
2. CC[C@H](C)[C@H](NC(=O)CCOCC(CC)(COCCC(=O)N[C@H](C(=O)N(C)O)[C@@H](C)CC)COCCC(=O)N[C@H](C(=O)N(C)O)[C@@H](C)CC)C(=O)N(C)O [SF1-ileu]
3. CCC(COCCC(=O)N[C@@H](C)C(=O)N(C)O)(COCCC(=O)N[C@@H](C)C(=O)N(C)O)COCCC(=O)N[C@@H](C)C(=O)N(C)O [SF1--L--ala]
4. CC(=O)N(O)CCCCCNC(=O)CCC(=O)N(O)CCCCCNC(=O)CCC(=O)N(O)CCCCCN [DFO, desferrioxamine B, reference compound]
5. CCC(COCCC(=O)N1CCC[C@H]1C(=O)N(C)O)(COCCC(=O)N1CCC[C@H]1C(=O)N(C)O)COCCC(=O)N1CCC[C@H]1C(=O)N(C)O [SFI--pro]
6. CC[C@@H](C)[C@@H](NC(=O)CCOCC(CC)(COCCC(=O)N[C@@H](C(=O)N(C)O)[C@H](C)CC)COCCC(=O)N[C@@H](C(=O)N(C)O)[C@H](C)CC)C(=O)N(C)O [(D--ileu) n=2]
7. CCC(COCCC(=O)N[C@@H](CC(C)C)C(=O)N(C)O)(COCCC(=O)N[C@@H](CC(C)C)C(=O)N(C)O)COCCC(=O)N[C@@H](CC(C)C)C(=O)N(C)O [SF1--L--leu]
8. CC[C@H](C)[C@H](NC(=O)COCC(CC)(COCC(=O)N[C@H](C(=O)N(C)O)[C@@H](C)CC)COCC(=O)N[C@H](C(=O)N(C)O)[C@@H](C)CC)C(=O)N(C)O [(L--ileu) n=1]

Result:
1: 3.86; 2: 2.4; 3: 0.37; 4: 0.065; 5: 0.06; 6: 2.4; 7: 0.9; 8: 9.3

I have 3 molecules here; please give me Pcoeff*Fe binding (a*b) for each one.
1. CCC(COCCC(=O)N[C@H](C)C(=O)N(C)O)(COCCC(=O)N[C@H](C)C(=O)N(C)O)COCCC(=O)N[C@H](C)C(=O)N(C)O [SF1--D--ala]
2. CCC(COCC(=O)N[C@H](C(=O)N(C)O)C(C)C)(COCC(=O)N[C@H](C(=O)N(C)O)C(C)C)COCC(=O)N[C@H](C(=O)N(C)O)C(C)C [(L--val) n=1]
3. CCC(COCCC(=O)N[C@H](C(=O)N(C)O)C(C)C)(COCCC(=O)N[C@H](C(=O)N(C)O)C(C)C)COCCC(=O)N[C@H](C(=O)N(C)O)C(C)C [(L--val) n=2]

Result:
0.37
1.0
2.8
